Overview of reported inhibition at 0.1 µM across a group of molecules:
Target: TLR9 (Homo sapiens, UniProt Q9NR96)
Construct: expressed in transfected cells; host or cells: HEK293
Sequence (Q9NR96 26-1032): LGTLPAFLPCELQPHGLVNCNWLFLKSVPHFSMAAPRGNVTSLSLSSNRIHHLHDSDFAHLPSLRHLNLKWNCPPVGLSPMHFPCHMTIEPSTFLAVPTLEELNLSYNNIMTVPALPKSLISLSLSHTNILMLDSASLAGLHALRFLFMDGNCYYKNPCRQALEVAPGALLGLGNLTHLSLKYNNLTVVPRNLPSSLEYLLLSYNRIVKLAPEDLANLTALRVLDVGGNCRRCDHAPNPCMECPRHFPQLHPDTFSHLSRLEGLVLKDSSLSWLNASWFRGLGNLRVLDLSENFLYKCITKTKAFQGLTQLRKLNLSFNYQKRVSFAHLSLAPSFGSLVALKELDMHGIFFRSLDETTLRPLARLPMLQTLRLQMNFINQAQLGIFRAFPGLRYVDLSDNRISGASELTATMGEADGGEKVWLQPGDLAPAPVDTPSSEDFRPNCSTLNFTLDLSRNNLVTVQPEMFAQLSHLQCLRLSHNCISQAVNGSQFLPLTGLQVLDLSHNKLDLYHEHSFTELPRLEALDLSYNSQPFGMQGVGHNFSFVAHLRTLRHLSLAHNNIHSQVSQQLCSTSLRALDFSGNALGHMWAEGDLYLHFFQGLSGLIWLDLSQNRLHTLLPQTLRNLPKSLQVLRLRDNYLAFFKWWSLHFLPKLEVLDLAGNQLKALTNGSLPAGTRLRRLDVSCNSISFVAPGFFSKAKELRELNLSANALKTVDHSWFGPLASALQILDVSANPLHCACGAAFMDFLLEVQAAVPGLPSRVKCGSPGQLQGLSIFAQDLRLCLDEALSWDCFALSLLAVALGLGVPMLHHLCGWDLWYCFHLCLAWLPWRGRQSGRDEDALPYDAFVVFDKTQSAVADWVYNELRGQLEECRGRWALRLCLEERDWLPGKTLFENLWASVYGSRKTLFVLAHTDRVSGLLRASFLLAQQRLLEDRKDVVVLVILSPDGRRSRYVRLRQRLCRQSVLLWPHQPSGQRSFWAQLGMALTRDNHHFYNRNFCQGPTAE
Assay: TLR9 screening of (+)-morphinan library, SEAP reporter in HEK293 cells expressing TLR9
Format: cell-based
Conditions: HEK293, read-out: % Inhibition (mean), 100 nM; activator ODN2006
Number only, in %; omit the unit.

These recorded examples may help you get a feel for the data.
{"columns": ["molecule", "observed.property", "quantitative.readout"],
 "data": [
  ["COC(=O)/C=C/c1cc(OC)c2c3c1CC1C4CCC(=O)[C@@H](O2)[C@@]34CCN1CC1CC1 (some centres unmarked) [II-15]", "inhibition at 0.1 µM", 14],
  ["COc1ccc2c3c1O[C@@H]1C(O)CC[C@]4(O)[C@H](C2)N(C)CC[C@@]314 (some centres unmarked) [II-40]", "inhibition at 0.1 µM", 0],
  ["C=CCN1CC[C@@]23c4c5ccc(OC)c4OC2C(O)CCC3C1C5 (some centres unmarked) [II-19]", "inhibition at 0.1 µM", 16],
  ["CC(=O)NC1CC[C@]2(O)[C@@H]3Cc4ccc(O)c5c4[C@]2(CCN3CC2CC2)[C@@H]1O5 (some centres unmarked) [II-75]", "inhibition at 0.1 µM", 24],
  ["C=CCN1CC[C@@]23c4c5ccc(OC)c4OC2C(NCCC)CCC3C1C5 (some centres unmarked) [II-93]", "inhibition at 0.1 µM", 91]
]}

Lab note: molecule COc1ccc2c(c1O)[C@@]13CCN(CC4CC4)[C@@H](C2)[C@@]1(O)CC(OC)C(=O)C3 (some centres unmarked) [Compound I-18] tested on TLR9 (Homo sapiens, UniProt Q9NR96); recorded inhibition at 0.1 µM was 1

Lab note: molecule COc1ccc2c3c1O[C@@H]1C(=O)CC[C@]4(O)[C@H](C2)N(C(=O)c2ccccc2)CC[C@@]314 [II-60] tested on TLR9 (Homo sapiens, UniProt Q9NR96); recorded inhibition at 0.1 µM was 13

Lab note: molecule COc1ccc2c3c1O[C@@H]1CCC[C@]4(O)[C@H](C2)N(C)CC[C@@]314 [II-44] tested on TLR9 (Homo sapiens, UniProt Q9NR96); recorded inhibition at 0.1 µM was 17

----------
Overview of reported OD 650 nm (mean ± sd) across a group of compounds:
Molecular target: TLR9 (Homo sapiens, UniProt Q9NR96)
Construct: expressed in transfected cells; host or cells: HEK293
Assay: TLR9 screening of (+)-morphinan library, SEAP reporter in HEK293 cells expressing TLR9
Format: cell-based
Details: 100 nM; activator ODN2006; control (no activator) 0.14, activator 1.42 OD

These recorded examples may help you get a feel for the data.
{"columns": ["compound", "OD 650 nm (mean ± sd)"],
 "data": [
  ["COc1ccc2c3c1O[C@@H]1C(O)CC[C@]4(O)[C@H](C2)N(C)CC[C@@]314 (stereo partly drawn)", "1.41 ± 0.13 OD"],
  ["C=CCN1CC[C@@]23c4c5c(-c6ccoc6)cc(OC)c4O[C@@H]2C(=O)CCC3C1C5 (stereo partly drawn)", "1.23 ± 0.05 OD"],
  ["COc1ccc2c(c1O)[C@@]13CCN(CC4CC4)[C@@H](C2)[C@@]1(O)CC(OC)C(=O)C3 (stereo partly drawn)", "1.40 ± 0.14 OD"],
  ["COC1=CC=C2[C@@H]3Cc4ccc(OC)c5c4[C@]2(CCN3C)[C@@H]1O5", "1.39 ± 0.05 OD"],
  ["COc1ccc2c3c1O[C@@H]1C(=O)CC[C@]4(O)[C@H](C2)N(C(=O)C2CCC2)CC[C@@]314", "1.19 ± 0.07 OD"],
  ["COc1ccc2c(c1O)[C@@]13CCN(C)[C@@H](C2)[C@@]1(O)CC(OC)C(=O)C3 (stereo partly drawn)", "1.50 ± 0.10 OD"]
]}

Reported OD 650 nm (mean ± sd) of C=CCN1CC[C@@]23CC(=O)CCC2C1Cc1c(-c2ccoc2)cc(OC)c(O)c13 (stereo partly drawn) : 1.12 ± 0.01 OD

Reported OD 650 nm (mean ± sd) of O=C1CC[C@]2(O)[C@@H]3Cc4ccc(O)c5c4[C@]2(CCN3CC2CC2)[C@@H]1O5 : 1.35 ± 0.13 OD

Reported OD 650 nm (mean ± sd) of COc1ccc2c3c1O[C@@H]1C(O)CC[C@]4(O)[C@H](C2)N(CC2CC2)CC[C@@]314 (single isomer, unassigned) [II-53a] : 1.22 ± 0.05 OD
